All values here come from paper PMC9097471.

experiment: Caco-2 cell permeability
Assay type: in vitro ADME
experimental_context: human; Caco-2, apical-to-basolateral
readout_type: Papp A→B at 1 h, 10 µM (×10⁻⁶ cm/s)

// solved cases for Papp A→B at 1 h, 10 µM follow
> print(dat)
                                   compound  experimental.value
1    Cc1cnc(-c2ccccc2C(F)(F)F)nc1NCc1ccccn1                 106
2  CC(C)c1ccccc1-c1nc(NCc2ccccn2)c2c(ccn2C)n1                 122

A = FC(F)(F)c1ccccc1-c1nc(NCc2ccccn2)c2ccccc2n1
B = FC(F)(F)c1ccccc1-c1nc(NCc2cccs2)c2ccccc2n1 [Compound 1, NIH-12848, reference compound]
Query block: Which of the two items, A and B , has the greater recorded Papp A→B at 1 h, 10 µM? // caller expects the label of the chosen entry
Result block: A
(A: 85 ×10⁻⁶ cm/s, B: 6.4 ×10⁻⁶ cm/s)

* * *

assay_system: PI5P4Kγ-WT (Homo sapiens)
Sequence (Q8TBX8 whole entry): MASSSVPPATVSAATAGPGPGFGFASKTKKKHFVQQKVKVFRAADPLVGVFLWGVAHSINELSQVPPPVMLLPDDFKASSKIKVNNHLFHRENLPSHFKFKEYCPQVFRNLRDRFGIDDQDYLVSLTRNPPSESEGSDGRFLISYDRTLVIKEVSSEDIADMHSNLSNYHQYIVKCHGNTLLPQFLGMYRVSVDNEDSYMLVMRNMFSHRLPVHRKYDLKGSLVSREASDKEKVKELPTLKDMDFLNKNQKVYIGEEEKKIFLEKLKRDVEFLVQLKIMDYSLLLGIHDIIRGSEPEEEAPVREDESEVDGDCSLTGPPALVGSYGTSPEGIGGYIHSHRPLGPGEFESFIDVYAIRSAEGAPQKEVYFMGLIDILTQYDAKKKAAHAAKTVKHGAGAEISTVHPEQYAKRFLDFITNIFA
experiment: InCell Pulse cellular target engagement (thermal stabilisation) in HEK293 cells
experimental_context: InCell Pulse, new data
readout_type: pIC50
The read-out pIC50 is expressed as -log10 of concentration in moles per litre.

> print(dat)
                                   compound               assay.system  readout.type  experimental.value
1  CN(C)C/C=C/C(=O)Nc1ccc(C(=O)Nc2cccc(Nc3cc(-c4c[nH]c5ccccc45)ncn3)c2)cc1 [Compound 3, THZ-P1-2]  PI5P4Kγ-WT (Homo sapiens)         pIC50                5.89

API: the following record is the query input.
Query block: Name the recorded pIC50 for FC(F)(F)c1ccccc1-c1nc(NCc2cccs2)c2ccccc2n1 [Compound 1, NIH-12848, reference compound] .
Result block: 5.60

* * *

assay_system: PI5P4Kγ+ (Homo sapiens, UniProt Q8TBX8, D138G/D197E/E133P/E135D/E153T/E196G/G136S/G139A/N195G/S132L/S134N)
Construct: GST (N, cleaved yes); made in house; host or cells: E. coli BL21(DE3), pGEX6P
Sequence (Q8TBX8 with tags, fused parts or gaps with the stated changes): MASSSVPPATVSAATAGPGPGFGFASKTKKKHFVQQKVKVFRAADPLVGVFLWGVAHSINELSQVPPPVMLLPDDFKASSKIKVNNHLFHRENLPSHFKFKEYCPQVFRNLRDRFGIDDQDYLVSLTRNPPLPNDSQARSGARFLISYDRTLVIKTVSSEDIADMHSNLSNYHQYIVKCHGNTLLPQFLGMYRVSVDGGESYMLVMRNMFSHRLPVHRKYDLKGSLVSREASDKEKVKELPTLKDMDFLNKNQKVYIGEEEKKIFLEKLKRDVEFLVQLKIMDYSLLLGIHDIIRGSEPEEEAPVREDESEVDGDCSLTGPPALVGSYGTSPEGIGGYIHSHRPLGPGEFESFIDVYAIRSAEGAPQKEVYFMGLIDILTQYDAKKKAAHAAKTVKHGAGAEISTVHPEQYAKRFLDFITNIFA
experiment: ADP-Glo inhibition assay
Format: biochemical
experimental_context: ligand efficiency from PI5P4Kγ+ pIC50
readout_type: PI5P4Kγ+ LE

> print(dat)
                            chemical.smiles  experimental.value
1   COc1ccc(-c2nc(NCc3ccccn3)c3ccccc3n2)cc1                0.27
2    Cc1cnc(-c2ccccc2C(F)(F)F)nc1NCc1ccccn1                0.28
3  Fc1ccc(-c2nc(NCc3ccccn3)c3ccccc3n2)c(C(F)(F)F)c1                0.29
4  CC(C)c1ccccc1-c1nc(NCc2ccccn2)c2c(ccn2C)n1                0.32
5  FC(F)(F)c1ccccc1-c1nc(NCc2cnccn2)c2ccccc2n1                0.27
6  CC(C)c1ccccc1-c1nc(NCc2ccccn2)c2c(ccn2CC2CC2)n1                0.31
7  CC(C)c1ccccc1-c1nc(NCc2ccccn2)c2cc(N)ccc2n1                0.32

* * *

Target sequence: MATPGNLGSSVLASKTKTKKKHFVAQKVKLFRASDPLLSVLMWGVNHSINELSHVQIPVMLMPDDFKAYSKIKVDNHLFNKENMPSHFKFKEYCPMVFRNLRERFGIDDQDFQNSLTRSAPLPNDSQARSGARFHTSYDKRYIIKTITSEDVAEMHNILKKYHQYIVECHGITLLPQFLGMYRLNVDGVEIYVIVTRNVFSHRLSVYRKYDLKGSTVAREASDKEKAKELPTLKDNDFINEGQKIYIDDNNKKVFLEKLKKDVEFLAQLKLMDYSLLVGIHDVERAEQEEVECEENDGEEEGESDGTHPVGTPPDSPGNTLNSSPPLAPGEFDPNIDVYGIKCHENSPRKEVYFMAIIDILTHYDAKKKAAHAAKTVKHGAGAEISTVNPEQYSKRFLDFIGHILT
pIC50: −log10 of the molar value.
Parameter: pIC50. Scope: all listed entries.

> print(dat)
                                   molecule  readout.type  experimental.value
1  CC(C)c1ccccc1-c1nc(NCc2ccccn2)c2c(ccn2C)n1 [Compound 40]         pIC50              < 4.52

Okay, next one:
Query block: Entry FC(F)(F)c1ccccc1-c1nc(NCc2cccs2)c2ccccc2n1 [Compound 1, NIH-12848, reference compound] has what pIC50?
Result block: < 4.52
